These measurements were taken from patent US7101878B1.

- PROTOCOL SUMMARY: Pharmacokinetic studies / bioavailability in rats
- Type: in vivo, rat
- EXPERIMENTAL PARAMETERS: male, rat, plasma, iv, 10 mg/kg, rat male
REPORTED PROPERTY: half-life (h)
Answer in h, number only, no unit symbol.

COMPOUND	NUMERIC RESULT
Cc1ccc(CNC(=O)c2ccc(Cc3cc4c(cc3C)C(C)(C)CCC4(C)C)o2)cc1C	0.917
Cc1cnc(CNC(=O)c2ccc(Cc3cc4c(cc3C)C(C)(C)CCC4(C)C)o2)cn1	1.5
COc1ccc(CNC(=O)c2ccc(Cc3cc4c(cc3C)C(C)(C)CCC4(C)C)o2)c(OC)c1	2.6
Cc1cc2c(cc1Cc1ccc(C(=O)NCc3cccc(CNc4ccnc(NC[C@@H]5CCCO5)n4)c3)o1)C(C)(C)CCC2(C)C	2

# half-life lookup, item COc1cc(OC)c(NC(=O)c2ccc(Cc3cc4c(cc3C)CCCC4(C)C)o2)c(OC)c1 4.1

Give the measured half-life of COc1cc(OC)c(NC(=O)c2ccc(Cc3cc4c(cc3C)C(C)(C)CCC4(C)C)o2)c(OC)c1C#N . 2.2

What value of half-life has been reported for the following compound? COc1cc(OC)c(NC(=O)c2ccc(Cc3c(C)cc(C)cc3C)o2)c(OC)c1 1.8

Fill in: half-life of Cc1cc2c(cc1Cc1ccc(C(=O)NCCOc3ccccc3)o1)C(C)(C)CCC2(C)C is ___ 1.5

Need half-life of Cc1cc2c(cc1Cc1ccc(C(=O)NCc3cccc(CNc4nccc(NCC5CCCO5)n4)c3)o1)C(C)(C)CCC2(C)C (stereo not drawn) , thanks. 0.967

----------
Quick note: these are pIC50 numbers for system: Glucagon (Homo sapiens)
Sequence (P47871 26-477): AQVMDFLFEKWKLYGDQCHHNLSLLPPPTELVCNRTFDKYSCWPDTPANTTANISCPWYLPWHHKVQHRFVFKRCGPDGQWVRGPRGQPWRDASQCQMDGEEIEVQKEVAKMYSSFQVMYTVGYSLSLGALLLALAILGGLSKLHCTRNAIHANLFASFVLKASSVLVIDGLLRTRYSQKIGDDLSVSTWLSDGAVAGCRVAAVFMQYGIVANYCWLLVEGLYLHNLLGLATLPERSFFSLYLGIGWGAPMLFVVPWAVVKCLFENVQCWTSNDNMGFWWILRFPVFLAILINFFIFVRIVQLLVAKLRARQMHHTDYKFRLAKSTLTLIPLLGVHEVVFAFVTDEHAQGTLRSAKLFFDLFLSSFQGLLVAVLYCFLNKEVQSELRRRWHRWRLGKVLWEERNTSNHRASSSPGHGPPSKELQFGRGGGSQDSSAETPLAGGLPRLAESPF
Scale explanation: pIC50 corresponds to minus log10 of a concentration expressed in moles per litre.

Notebook: pull reported pIC50 for Glucagon (Homo sapiens), entry Cc1cc2c(cc1Cc1ccc(C(=O)NCC3CCCC(CNc4nccc(NCC5CCCO5)n4)C3)o1)C(C)(C)CCC2(C)C (stereo not drawn) [Compound 11] 5.49

Query for Glucagon (Homo sapiens): what pIC50 does the record show for Cc1cc2c(cc1Cc1ccc(C(=O)NC[C@H]3CC[C@H](C(=O)O)CC3)o1)C(C)(C)CCC2(C)C [Compound 12] ? 5.00

Any idea what pIC50 came out for COc1cccc(OC)c1NC(=O)c1ccc(Cc2cc3c(cc2C)C(C)(C)CCC3(C)C)o1 [Compound 20] on Glucagon (Homo sapiens)? 5.17

Kindly state the measured pIC50 obtained for Cc1cc2c(cc1Cc1ccc(C(=O)NC[C@H]3CC[C@H](CNC(=N)N)CC3)o1)C(C)(C)CCC2(C)C [Compound 10] with Glucagon (Homo sapiens). 5.18

Give recorded pIC50 with Glucagon (Homo sapiens) for the following compound: Cc1cc2c(cc1Cc1ccc(C(=O)NCc3nc4ccccc4[nH]3)o1)C(C)(C)CCC2(C)C [Compound 48] 5.20

Value wanted: pIC50 (Glucagon (Homo sapiens)) of entry Cc1cnc(CNC(=O)c2ccc(Cc3cc4c(cc3C)C(C)(C)CCC4(C)C)o2)cn1 [Compound 13] 5.10

----------
- MEASURED ON: mouse GnRH receptor (Mus musculus)
- Construct: expressed in transfected cells; host or cells: 293 cells
- Sequence (Q01776 whole entry): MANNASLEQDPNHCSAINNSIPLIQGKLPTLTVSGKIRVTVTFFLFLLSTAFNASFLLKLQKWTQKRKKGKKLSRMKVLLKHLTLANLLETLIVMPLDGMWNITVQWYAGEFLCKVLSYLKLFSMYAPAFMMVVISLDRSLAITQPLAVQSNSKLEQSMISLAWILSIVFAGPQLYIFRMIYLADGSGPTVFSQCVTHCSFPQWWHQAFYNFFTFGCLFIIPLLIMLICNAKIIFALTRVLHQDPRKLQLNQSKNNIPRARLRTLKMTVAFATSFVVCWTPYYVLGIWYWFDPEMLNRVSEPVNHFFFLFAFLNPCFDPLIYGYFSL
- PROTOCOL SUMMARY: Radioligand binding, 125I-GnRH-A, 293 cells expressing mouse GnRH receptors
- EXPERIMENTAL PARAMETERS: 1 h, substrate remaining; 10 uM compound; closer to zero = closer to 100% inhibition; read-out: S%R 10 uM mGnRHR
- Procedure: All compounds were diluted in 1% DMSO (final assay concentration) in binding assay buffer. […] Reactions were terminated by rapid filtration onto 96-well Packard GF/C filters soaked in 0.1% polyethyleneimine. Filters were washed three times with PBS buffer, dried and counted on a Packard Topcount by liquid scintillation counting. […] The reaction mixture was vortexed and incubated for 1 min at room temperature. […] Fractions were assessed for biological activity by radioligand binding.
Hi! Just check whether remaining activity at 10 µM is below 30%. Below gives true (1), equal or above gives false (0).

Here's what some known entries look like.
COMPOUND	CAT
Cc1cc2c(cc1Cc1ccc(C(=O)N(Cc3ccco3)C3CC(=O)N(C)C3=O)o1)C(C)(C)CCC2(C)C (centres unmarked)	false (0)
Cc1cc2c(cc1Cc1ccc(C(=O)N3CCCC3C(=O)OCc3ccccc3)o1)C(C)(C)CCC2(C)C (centres unmarked)	true (1)
Cc1cc2c(cc1Cc1ccc(C(=O)N3CCCCCCC3)o1)C(C)(C)CCC2(C)C	true (1)

Problem: For the compound Cc1cc2c(cc1Cc1ccc(C(=O)N(C)CC#N)o1)C(C)(C)CCC2(C)C , is remaining activity at 10 µM under 30%? true (1)

Strictly below 30%: is that where remaining activity at 10 µM of Cc1cc2c(cc1Cc1ccc(C(=O)NC(C)CN(C)C)o1)C(C)(C)CCC2(C)C (centres unmarked) sits? true (1)

Is remaining activity at 10 µM of Cc1cc2c(cc1Cc1ccc(C(=O)N3CCC(C(=O)c4ccccc4)CC3)o1)C(C)(C)CCC2(C)C strictly below 30%? false (0)

Is remaining activity at 10 µM of Cc1cc2c(cc1Cc1ccc(C(=O)N3CCN(C(=O)c4ccco4)CC3)o1)C(C)(C)CCC2(C)C strictly below 30%? true (1)
